biological target: ENPP-1 ECD (Homo sapiens (Human)); assay: Assay 2: inhibition of ENPP1 hydrolysis of 2′,3′-cGAMP (AMP-Glo, […] enzyme); conditions: Assay 2 (KI), ENPP1 hydrolysis of 2′,3′-cGAMP, AMP-Glo, […] ENPP-1, 24 μM cGAMP
pKi: −log10 of the molar value.
parameter.measured: pKi

These recorded examples may help you get a feel for the data.
I have this compound here, COc1cccc2c(N3CCC(CCS(C)(=N)=O)CC3)ccnc12 (stereo not shown) , and I need its recorded pKi.
6.52 to 8.52

I have this compound here, COc1ccc2c(N3CCC(CCS(C)(=N)=O)CC3)ncnc2c1OC (stereo not shown) , and I need its recorded pKi.
< 6.52

I have this compound here, COc1ccc2c(N3CCC(CCS(C)(=N)=O)CC3)ccnc2c1 (stereo not shown) , and I need its recorded pKi.
6.52 to 8.52

# input for lookup
I have this compound here, COc1ccc2c(N3CCC4(CC3)CN(S(C)(=N)=O)C4)ccnc2c1 (stereo not shown) , and I need its recorded pKi.
6.52 to 8.52

###

Could you please report measured log10 of IC50 for the items listed next?
biological target: ENPP-1 ECD (Homo sapiens (Human), UniProt P22413); assay: Assay 1: inhibition of ENPP1 hydrolysis of 2′,3′-cGAMP (AMP-Glo, […] enzyme); conditions: Assay 1 (IC50), inhibition of ENPP1 hydrolysis of 2′,3′-cGAMP; no unit in Table 18 (Table 17 legend for this assay uses nM)
Sequence (P22413 98-925): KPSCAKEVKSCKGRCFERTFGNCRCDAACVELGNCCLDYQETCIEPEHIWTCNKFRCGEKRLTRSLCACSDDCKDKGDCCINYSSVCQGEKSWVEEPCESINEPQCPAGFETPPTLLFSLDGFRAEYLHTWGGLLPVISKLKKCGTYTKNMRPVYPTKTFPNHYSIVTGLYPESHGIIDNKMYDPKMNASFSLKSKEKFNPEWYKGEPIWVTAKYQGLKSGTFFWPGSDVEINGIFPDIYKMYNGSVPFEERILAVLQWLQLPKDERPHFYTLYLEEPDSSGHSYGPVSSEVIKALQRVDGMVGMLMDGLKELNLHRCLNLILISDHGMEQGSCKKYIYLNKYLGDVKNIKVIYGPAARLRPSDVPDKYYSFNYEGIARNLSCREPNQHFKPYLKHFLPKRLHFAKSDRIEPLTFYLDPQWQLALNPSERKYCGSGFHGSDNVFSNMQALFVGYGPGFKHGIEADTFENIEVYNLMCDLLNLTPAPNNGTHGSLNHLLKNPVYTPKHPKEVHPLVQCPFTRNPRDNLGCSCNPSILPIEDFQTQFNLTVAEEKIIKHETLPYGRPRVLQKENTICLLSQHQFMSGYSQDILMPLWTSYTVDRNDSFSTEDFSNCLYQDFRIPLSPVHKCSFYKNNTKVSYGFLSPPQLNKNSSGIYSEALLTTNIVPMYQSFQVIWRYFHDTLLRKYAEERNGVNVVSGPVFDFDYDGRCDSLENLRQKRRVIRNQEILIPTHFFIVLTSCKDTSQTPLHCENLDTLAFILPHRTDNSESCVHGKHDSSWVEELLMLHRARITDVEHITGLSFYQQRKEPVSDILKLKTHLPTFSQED
A difference of one corresponds to tenfold IC50; all values are log10 with IC50 in nM.

These recorded examples may help you get a feel for the data.
I have this compound here, CCS(=N)(=O)c1ccc(Oc2ccnc3cc(OC)ccc23)cc1 (centres unmarked) , and I need its recorded log10 of IC50.
0.95

I have this compound here, COc1cc2nncc(N3CCC(CCS(C)(=N)=O)CC3)c2cc1OC (centres unmarked) , and I need its recorded log10 of IC50.
0.79

I have this compound here, COc1cccc2c(Oc3ccc(S(C)(=N)=O)cc3)c(C#N)cnc12 (centres unmarked) , and I need its recorded log10 of IC50.
1.71

I have this compound here, COc1ccc2c(NCc3ccc(S(C)(=N)=O)cc3)ccnc2c1 (centres unmarked) , and I need its recorded log10 of IC50.
1.04

# input for lookup
I have this compound here, COc1ccc2c(OCc3cccc(S(C)(=N)=O)c3)ccnc2c1 (centres unmarked) , and I need its recorded log10 of IC50.
0.15

###

molecular target: UniProt:P22413; assay: Assay 2: inhibition of ENPP1 hydrolysis of 2′,3′-cGAMP (AMP-Glo, […] enzyme); conditions: Assay 2 (KI), inhibition of ENPP1 hydrolysis of 2′,3′-cGAMP; no unit in Table 18 (Table 17 legend for this assay uses nM)
Returns the class for an entry based on its Ki. Class ranges: low range: < 0.03 nM; mid range: ≥ 0.03 nM and < 1 nM; high range: ≥ 1 nM

A selection of reference data follows.
Would you mind sorting COc1ccc2c(Oc3ccc(S(C)(=N)=O)cc3)cnnc2c1 (stereo not drawn) into the appropriate category?
high range

Would you mind sorting COc1cc2ncnc(N3CCC4(CC3)CCN(S(C)(=N)=O)C4)c2cc1OCF (stereo not drawn) into the appropriate category?
mid range

Would you mind sorting CCOc1cccc2c(N3CCC(O)(CS(C)(=N)=O)CC3)ncnc12 (stereo not drawn) into the appropriate category?
mid range

Would you mind sorting COc1ccc2c(Oc3cccc(S(C)(=N)=O)c3)ccnc2c1 (stereo not drawn) into the appropriate category?
high range

Would you mind sorting COc1cc2nccc(Oc3ccc(S(C)(=N)=O)nc3)c2cc1OC (stereo not drawn) into the appropriate category?
high range

Continuing:
Would you mind sorting CCS(=N)(=O)CC1(O)CCN(c2ncnc3c(OC)cccc23)CC1 (stereo not drawn) into the appropriate category?
mid range
